tested system: adenosine A2B receptor (Homo sapiens (Human))
test: Adenosine receptor activity assay (Table 1), A2B activity
Type: biochemical
run parameters: read-out: Ave A2B cAMP IC50
pIC50: −log10 of the molar value.
Answer each item with its documented pIC50.

pIC50 lookup needed for COCC(Nc1nc(C(=O)N2CCCC2)c2sccc2n1)c1cccnc1 (centres unmarked) , thanks.
7.30 to 8.00

Then this compound: COC[C@@H]1CCN(C(=O)c2nc(N[C@@H](C)c3ccccn3)nc3ccsc23)C1
7.00 to 7.30

Then this compound: C[C@H](Nc1nc(C(=O)N2CC[C@@H](CO)C2)c2sccc2n1)c1cccnc1
7.30 to 8.00

Then this compound: CNc1cc2nc(N[C@@H](C)c3ccccn3)nc(C(=O)N3CC(O)C3)c2s1
7.30 to 8.00

Then this compound: CCNC(=O)C1CCN(C(=O)c2nc(N[C@@H](C)c3cncc(F)c3)nc3ccsc23)C1 (some centres unmarked)
> 8.00

Then this compound: C[C@H](Nc1nc(C(=O)N2CC[C@H](NC(=O)OC(C)(C)C)C2)c2sccc2n1)c1ccccn1
7.00 to 7.30

Then this compound: C[C@H](Nc1nc(C(=O)NCc2ccccn2)c2sccc2n1)c1cccnc1
7.30 to 8.00

Then this compound: Cc1cc2nc(N[C@@H](C)c3cncc(F)c3)nc(C(=O)N3CC(CC(=O)OC(C)(C)C)C3)c2s1
7.30 to 8.00

Then this compound: Cc1cc2nc(N[C@@H](C)c3cncc(F)c3)nc(C(=O)NCCC3CCN(C(=O)OC(C)(C)C)CC3)c2s1
6.30 to 7.00

Then this compound: C[C@H](Nc1nc(C(=O)NC[C@@H](C)O)c2sc(C(F)(F)F)cc2n1)c1cncc(F)c1
> 8.00

Then this compound: COC1(C)CN(C(=O)c2nc(N[C@@H](C)c3ccccn3)nc3ccsc23)C1
7.00 to 7.30

Then this compound: C[C@H](Nc1nc(C(=O)NCCN2CCCC2)c2sccc2n1)c1cncc(F)c1
< 6.30

Then this compound: O=C(c1nc(NCc2cccc(Cl)c2)nc2ccsc12)N1CC(O)C1
7.30 to 8.00

Then this compound: Cc1cc2nc(N[C@@H](C)c3cncc(F)c3)nc(C(=O)N3CCN(C(=O)NC(C)C)C3)c2s1
7.30 to 8.00

Then this compound: COC[C@@H]1CCN1C(=O)c1nc(N[C@@H](C)c2cncc(F)c2)nc2ccsc12
6.30 to 7.00

Then this compound: Cc1cc2nc(N[C@@H](C)c3cncc(F)c3)nc(C(=O)N3CC(NC(=O)[C@@H]4CCOC4)C3)c2s1
7.30 to 8.00

Then this compound: C[C@H](Nc1nc(C(=O)N2CC[C@@H](O)C2)c2sccc2n1)c1ccnc(F)c1
7.00 to 7.30

Then this compound: C[C@H](Nc1nc(C(=O)NCC(F)(F)F)c2sccc2n1)c1cncc(F)c1
7.30 to 8.00

Then this compound: C[C@H](Nc1nc(C(=O)N[C@H]2C[C@@H](O)C2)c2sccc2n1)c1ccccn1
> 8.00

Then this compound: O=C(c1nc(NCc2cccc(O)n2)nc2ccsc12)N1CCCC1
7.00 to 7.30

Then this compound: Cc1ncccc1CNC(=O)c1nc(NCc2cccnc2C)nc2ccsc12
< 6.30

Then this compound: Cc1cc2nc(N[C@@H](C)c3cncc(F)c3)nc(C(=O)N3CC[C@@H](CO)C3)c2s1
> 8.00

Then this compound: C[C@H](Nc1nc(C(=O)N[C@H]2CCNC2)c2sccc2n1)c1ccccn1
< 6.30

Then this compound: C[C@H](O)CNC(=O)c1nc(N[C@@H](C)c2ccccn2)nc2ccsc12
7.00 to 7.30

Then this compound: C[C@H](Nc1nc(C(=O)N2CC[C@H](O)C2)c2sccc2n1)c1ccccn1
7.00 to 7.30

Then this compound: CN(C(=O)OC(C)(C)C)C1CN(C(=O)c2nc(NCc3cncc(F)c3)nc3ccsc23)C1
7.00 to 7.30

Then this compound: C[C@H](Nc1nc(C(=O)N2CC[C@@H](F)C2)c2sccc2n1)c1cccnc1
7.30 to 8.00

Then this compound: C[C@H](Nc1nc(C(=O)N[C@H]2CCN(C(=O)OC(C)(C)C)C2)c2sccc2n1)c1ccccn1
7.00 to 7.30

Then this compound: COc1cncc(CNc2nc(C(=O)N3CCC3)c3sccc3n2)c1
6.30 to 7.00

Then this compound: COCCNC(=O)c1nc(N[C@@H](C)c2ccccn2)nc2ccsc12
7.30 to 8.00

Then this compound: Cc1cc2nc(N[C@@H](C)c3cncc(F)c3)nc(C(=O)N3CC[C@H](CN)C3)c2s1
> 8.00

Then this compound: C[C@H](Nc1nc(C(=O)N2CC(CC(=O)NC(C)(C)C)C2)c2sccc2n1)c1cncc(F)c1
7.30 to 8.00

====

test: Hepatocyte (Hep) intrinsic clearance, rat
Format: in vitro ADME
run parameters: hepatocytes
result type: hepatocyte CLint (µL/min/1e6 cells)
Field: numeric (µL/min/1e6 cells). Do not append units.

hepatocyte CLint lookup needed for CCNC(=O)c1nc(N[C@@H](C)c2ccccn2)nc2ccsc12 , thanks.
45.4

Then this compound: C[C@H](Nc1nc(C(=O)N2CC(F)(F)C2)c2sccc2n1)c1ccccn1
46.5

Then this compound: C[C@H](Nc1nc(C(=O)N2CC[C@H](O)C2)c2sccc2n1)c1ccccn1
4.46

Then this compound: Cc1ncccc1CNc1nc(C(=O)N2CCCC2)c2sccc2n1
47.1

Then this compound: Cc1cncc(CNc2nc(C(=O)N3CCCC3)c3sccc3n2)c1
149

Then this compound: CNc1cc2nc(N[C@@H](C)c3cccnc3)nc(C(=O)N3CC[C@H](O)C3)c2s1
10

Then this compound: C[C@H](Nc1nc(C(=O)N2CC[C@H](O)C2)c2sccc2n1)c1cccc(F)c1
43

Then this compound: O=C(c1nc(NCc2cncc(F)c2)nc2ccsc12)N1CC[C@H](O)C1
25.6

Then this compound: C[C@H](Nc1nc(C(=O)NC2CCC2)c2sccc2n1)c1ccccn1
68.3

====

tested system: adenosine A2B receptor (Homo sapiens (Human), UniProt P29275)
Sequence (P29275 whole entry): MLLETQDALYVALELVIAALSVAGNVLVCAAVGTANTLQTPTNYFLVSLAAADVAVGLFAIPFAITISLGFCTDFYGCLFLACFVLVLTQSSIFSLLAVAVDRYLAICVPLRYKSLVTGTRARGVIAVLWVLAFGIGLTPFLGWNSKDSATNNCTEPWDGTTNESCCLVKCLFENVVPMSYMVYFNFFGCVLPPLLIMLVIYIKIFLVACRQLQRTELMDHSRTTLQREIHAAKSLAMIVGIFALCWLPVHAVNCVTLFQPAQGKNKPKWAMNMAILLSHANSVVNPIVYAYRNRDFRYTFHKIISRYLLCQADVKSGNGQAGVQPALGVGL
test: Adenosine receptor activity assay (Table 1), A2B activity
Type: biochemical
run parameters: A2A activity to the A2B activity; A2A/A2B
Please mark yes if the recorded Ratio is equal to or greater than 1, and no if it falls below.

Hi team, for C[C@H](Nc1nc(C(=O)NCCNS(C)(=O)=O)c2sccc2n1)c1cncc(F)c1 , is the recorded Ratio at or above 1?
yes

Then this molecule: COc1ccc([C@@H](C)Nc2nc(C(=O)NCc3ccc(OC)nc3)c3sccc3n2)cc1
no

Then this molecule: C[C@H](Nc1nc(C(=O)N2CC(CNC(=O)C(C)(C)C)C2)c2sccc2n1)c1cncc(F)c1
yes

Then this molecule: C[C@H](Nc1nc(C(=O)N2CC(CNC(=O)OCC(C)(C)C)C2)c2sccc2n1)c1cncc(F)c1
yes

Then this molecule: COC[C@@H]1CCN(C(=O)c2nc(N[C@@H](C)c3ccccn3)nc3ccsc23)C1
yes

Then this molecule: CCOC(=O)N(C)C1CN(C(=O)c2nc(N[C@@H](C)c3cncc(F)c3)nc3cc(C)sc23)C1
yes

Then this molecule: Cc1cc2nc(N[C@@H](C)c3cncc(F)c3)nc(C(=O)N3CC(NC(=O)C4CCC4)C3)c2s1
yes

Then this molecule: Cc1cc2nc(N[C@@H](C)c3cncc(F)c3)nc(C(=O)N3CC(NC(=O)C(C)(C)C)C3)c2s1
no

Then this molecule: COCCC(=O)NC1CN(C(=O)c2nc(N[C@@H](C)c3cncc(F)c3)nc3cc(C)sc23)C1
yes

Then this molecule: CC(C)C(=O)NC1CN(C(=O)c2nc(N[C@@H](C)c3cncc(F)c3)nc3ccsc23)C1
yes

Then this molecule: Cc1cc2nc(N[C@@H](C)c3cccnc3)nc(C(=O)N3CC(CNC(=O)OC(C)(C)C)C3)c2s1
yes

Then this molecule: CO[C@H]1CCN(C(=O)c2nc(N[C@@H](C)c3ccccn3)nc3c(C)csc23)C1
yes

Then this molecule: CCOc1ccc(CNc2nc(C(=O)N3CCC3)c3sccc3n2)cn1
no

Then this molecule: C[C@H](Nc1nc(C(=O)N2CC(C)(NC(=O)C3CC3)C2)c2sccc2n1)c1cncc(F)c1
yes

Then this molecule: COC[C@H]1CCN(C(=O)c2nc(N[C@@H](C)c3ccccn3)nc3ccsc23)C1
yes

Then this molecule: Cc1cc2nc(N[C@@H](C)c3cncc(F)c3)nc(C(=O)N3CC(C(=O)OC(C)(C)C)C3)c2s1
yes

Then this molecule: CC(C)(C)C(=O)N[C@H]1CCN(C(=O)c2nc(NCc3cncc(F)c3)nc3ccsc23)C1
yes

Then this molecule: Cc1cc(C(=O)NC2CN(C(=O)c3nc(N[C@@H](C)c4cncc(F)c4)nc4ccsc34)C2)c(C)o1
yes

Then this molecule: Cc1cc2nc(N[C@@H](C)c3cncc(F)c3)nc(C(=O)N3CC[C@H](CN)C3)c2s1
yes

Then this molecule: C[C@H](Nc1nc(C(=O)N2CC(NC(=O)c3cccc(Cl)c3)C2)c2sccc2n1)c1cncc(F)c1
yes

Then this molecule: C[C@H](Nc1nc(C(=O)NCCc2cccc(C#N)c2)c2sccc2n1)c1cncc(F)c1
yes

Then this molecule: Cc1cc2nc(N[C@@H](C)c3cncc(F)c3)nc(C(=O)N3CC(N(C)C(=O)CC(C)(C)C)C3)c2s1
yes

Then this molecule: C[C@H](Nc1nc(C(=O)N2CC(NC(=O)c3ccoc3)C2)c2sccc2n1)c1cncc(F)c1
yes

Then this molecule: Cc1csc2c(C(=O)NCc3ccccn3)nc(N[C@@H](C)c3ccccn3)nc12
no

Then this molecule: C[C@H](Nc1nc(C(=O)N2CC(NC(=O)c3ccccc3F)C2)c2sccc2n1)c1cncc(F)c1
yes

Then this molecule: Cc1cc2nc(N[C@@H](C)c3cccnc3)nc(C(=O)NCc3ccccn3)c2s1
yes

Then this molecule: C[C@H](Nc1nc(C(=O)N2CC(CNC(=O)N(C)C)C2)c2sccc2n1)c1cncc(F)c1
yes

Then this molecule: Cc1cc2nc(N[C@@H](C)c3cncc(F)c3)nc(C(=O)N3CC(CC(=O)OC(C)(C)C)C3)c2s1
yes

Then this molecule: Cc1cc2nc(N[C@@H](C)c3cccnc3)nc(C(=O)N3CC(CN(C)C)C3)c2s1
yes

Then this molecule: Cc1csc2c(C(=O)NCCc3cccc(O)c3)nc(N[C@@H](C)c3ccccn3)nc12
yes

Then this molecule: C[C@H](Nc1nc(C(=O)N2CC(NC(=O)C3(C)CCC3)C2)c2sccc2n1)c1cncc(Cl)c1
no
